Experiment: Pharmacokinetics in male Beagle dogs after i.v. and p.o. administration
Format: in vivo
Settings: plasma, iv, Dog, i.v., 1 mg/kg, read-out: Cmax
Quantity: Cmax (ng/mL)
The response must be a number in ng/mL with no trailing unit.

So what does the record say about Cmax for CO[C@@H]1COc2c(S(=O)(=O)NC(=O)Nc3c4c(cc5c3CCC5)CCC4)cnn2C1 [JT002] ?
7000

====

Experiment: Pharmacokinetics in male Beagle dogs after i.v. and p.o. administration
Assay type: in vivo
Settings: plasma, po, Dog, p.o., 1 mg/kg, sodium salt form, read-out: %F (oral bioavailability)
Quantity: bioavailability
Answer with the figure and its unit, nothing else.

So what does the record say about bioavailability for CO[C@@H]1COc2c(S(=O)(=O)NC(=O)Nc3c4c(cc5c3CCC5)CCC4)cnn2C1 [JT002] ?
100%

====

Assay: Pharmacokinetics in male Beagle dogs after i.v. and p.o. administration
Type: in vivo
Settings: plasma, po, Dog, p.o., 1 mg/kg, read-out: Cmax
Quantity: Cmax
Answer with the figure and its unit, nothing else.

So what does the record say about Cmax for CO[C@@H]1COc2c(S(=O)(=O)NC(=O)Nc3c4c(cc5c3CCC5)CCC4)cnn2C1 [JT002] ?
4000 ng/mL

====

Molecular target: NLRP3 inflammasome assembly (ASC speck) (Mus musculus, UniProt Q8R4B8)
Construct: mouse bone-marrow derived macrophages; mouse whole blood (C57BL/6 in the ex vivo study)
Sequence (Q8R4B8 whole entry): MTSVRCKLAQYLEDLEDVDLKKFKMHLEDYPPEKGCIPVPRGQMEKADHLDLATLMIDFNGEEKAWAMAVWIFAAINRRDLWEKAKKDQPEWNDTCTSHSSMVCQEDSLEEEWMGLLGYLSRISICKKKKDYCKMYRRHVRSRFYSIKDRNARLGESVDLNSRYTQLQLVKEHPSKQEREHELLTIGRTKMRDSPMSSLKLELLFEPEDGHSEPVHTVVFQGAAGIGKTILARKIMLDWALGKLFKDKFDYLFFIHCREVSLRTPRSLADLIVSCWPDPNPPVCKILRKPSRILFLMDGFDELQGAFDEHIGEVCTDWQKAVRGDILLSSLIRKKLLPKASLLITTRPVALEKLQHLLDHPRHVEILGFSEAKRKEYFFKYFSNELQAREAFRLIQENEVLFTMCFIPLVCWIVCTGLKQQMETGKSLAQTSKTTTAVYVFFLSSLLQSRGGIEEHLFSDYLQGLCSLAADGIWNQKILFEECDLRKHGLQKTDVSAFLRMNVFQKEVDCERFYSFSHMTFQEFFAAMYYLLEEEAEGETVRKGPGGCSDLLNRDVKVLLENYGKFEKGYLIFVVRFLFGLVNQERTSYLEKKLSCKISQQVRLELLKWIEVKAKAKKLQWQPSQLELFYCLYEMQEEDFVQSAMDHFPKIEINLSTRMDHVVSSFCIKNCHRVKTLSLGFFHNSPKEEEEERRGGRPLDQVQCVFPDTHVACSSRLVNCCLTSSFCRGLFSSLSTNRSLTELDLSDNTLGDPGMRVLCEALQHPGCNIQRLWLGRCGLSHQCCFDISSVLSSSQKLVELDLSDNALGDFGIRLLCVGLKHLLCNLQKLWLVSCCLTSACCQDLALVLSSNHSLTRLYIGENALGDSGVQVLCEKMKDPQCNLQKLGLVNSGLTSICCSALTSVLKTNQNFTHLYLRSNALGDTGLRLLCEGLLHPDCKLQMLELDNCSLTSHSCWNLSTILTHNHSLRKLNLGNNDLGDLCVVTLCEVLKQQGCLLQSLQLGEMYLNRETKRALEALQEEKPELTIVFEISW
Experiment: Inhibition of ASC speck formation by immunofluorescence in LPS + nigericin treated mouse BMDMs
Conditions: Mouse BMDM, read-out: Geo Av IC50, ASC specks
Quantity: pIC50
Schema: pIC50 number; meaning minus log10 of the concentration expressed in molar units.

Write down the reported pIC50 of CO[C@@H]1COc2c(S(=O)(=O)NC(=O)Nc3c4c(cc5c3CCC5)CCC4)cnn2C1 [JT002] , test system: NLRP3 inflammasome assembly (ASC speck) (Mus musculus, UniProt Q8R4B8).
8.52

====

Target: NLRP3 inflammasome (Mus musculus, UniProt Q8R4B8)
Sequence (Q8R4B8 whole entry): as above
Assay: Inhibition of IL-1β production in mouse BMDMs stimulated by LPS + monosodium urate crystals
Assay type: cell-based
Parameters: host or cells: mouse PBMCs; mouse bone-marrow derived macrophages; mouse whole blood (C57BL/6 in the ex vivo study)
Conditions: Mouse BMDM, read-out: Geo Av IC50, IL-1β
Quantity: pIC50
Schema: pIC50 number; meaning minus log10 of the concentration expressed in molar units.

So what does the record say about pIC50 for CO[C@@H]1COc2c(S(=O)(=O)NC(=O)Nc3c4c(cc5c3CCC5)CCC4)cnn2C1 [JT002] ?
8.52

====

Test: Pharmacokinetics in male Sprague–Dawley rats after i.v. and p.o. administration
Format: in vivo
Conditions: male, Sprague-Dawley, plasma, iv; Rat, i.v., 1 mg/kg; read-out: Vss
Quantity: Vd (L/kg)
The response must be a number in L/kg with no trailing unit.

So what does the record say about Vd for CO[C@@H]1COc2c(S(=O)(=O)NC(=O)Nc3c4c(cc5c3CCC5)CCC4)cnn2C1 [JT002] ?
0.2

====

Assay: Pharmacokinetics in male Sprague–Dawley rats after i.v. and p.o. administration
Assay type: in vivo
Conditions: male, Sprague-Dawley, plasma, iv; Rat, 1 mg/kg
Quantity: Cmax
Answer with the figure and its unit, nothing else.

So what does the record say about Cmax for CO[C@@H]1COc2c(S(=O)(=O)NC(=O)Nc3c4c(cc5c3CCC5)CCC4)cnn2C1 ?
10600 ng/mL
